assay target: UniProt:P19327
Sequence (P19327 whole entry): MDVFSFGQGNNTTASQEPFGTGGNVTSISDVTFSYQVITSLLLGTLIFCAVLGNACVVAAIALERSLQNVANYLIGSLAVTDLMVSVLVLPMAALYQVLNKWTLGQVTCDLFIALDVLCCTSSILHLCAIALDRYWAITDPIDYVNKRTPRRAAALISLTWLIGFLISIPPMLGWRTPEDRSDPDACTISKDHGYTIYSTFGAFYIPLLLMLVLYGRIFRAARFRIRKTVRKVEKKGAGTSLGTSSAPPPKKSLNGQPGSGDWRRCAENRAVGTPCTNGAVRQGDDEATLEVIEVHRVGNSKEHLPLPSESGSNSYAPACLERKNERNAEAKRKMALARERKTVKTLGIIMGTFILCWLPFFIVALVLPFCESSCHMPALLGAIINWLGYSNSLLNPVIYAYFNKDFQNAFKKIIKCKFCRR
What follows is literature data on IC50 for UniProt:P19327.
reported endpoint: IC50 (µM)

>  <compound>
CC1(C)SCN(CCCCN2CCN(c3ccc4ccccc4n3)CC2)C1=O

>  <reported endpoint>
IC50

>  <result value>
0.153

$$$$
>  <compound>
Cl.O=C(NCCCCN1CCN(c2nsc3ccccc23)CC1)c1ccc(C(F)(F)F)cc1

>  <reported endpoint>
IC50

>  <result value>
0.0091

$$$$
>  <compound>
N#Cc1ccc2[nH]cc(CCCCN3CCN(c4ccc5occc5c4)CC3)c2c1

>  <reported endpoint>
IC50

>  <result value>
0.0087

$$$$
>  <compound>
Clc1ccc(N2CCN(Cc3cn(-c4ccccc4)c(-c4ccccc4)n3)CC2)cc1

>  <reported endpoint>
IC50

>  <result value>
1.89

$$$$
>  <compound>
O=C1C2CCCCC2C=NN1CCCCN1CCN(c2nsc3ccccc23)CC1 (stereo in doubt; 52)

>  <reported endpoint>
IC50

>  <result value>
0.00082

$$$$
>  <compound>
N#Cc1ccc2[nH]cc(CCCCN3CCN(c4cccc5cc(C(N)=O)oc45)CC3)c2c1

>  <reported endpoint>
IC50

>  <result value>
0.0019

$$$$

P. CN(CCCCN1CCN(c2csc3cc(F)ccc23)CC1)C(=O)c1noc2ccccc12
Q. COc1ccccc1N1CCN(CCCC2CCCc3c(OC)cccc32)CC1 (stereo not given)
Which of the two gives a bigger number for IC50: P or Q ? Output the label that corresponds to your choice.
P

a. OC1(c2ccc3c(c2)OCO3)CCC(N2CCN(Cc3ccc(F)cc3F)CC2)CC1 (stereo not given)
b. CN(CCCCN1CCC(c2noc3cc(F)ccc23)CC1)C(=O)c1nsc2ccccc12
When the recorded IC50 values are compared, which is smaller: that of a or that of b ? Mark your answer with the label of the selected entry.
a
(a: 0.057 µM, b: 0.16 µM)

a. NC(=O)c1ccc2[nH]cc(CCCCN3CCN(c4ccc5c(c4)CCO5)CC3)c2c1
b. Fc1ccc(-c2cncc(CN3CCN(c4ccccc4F)CC3)c2)cc1
Which has the higher IC50, a or b ? Pick one and reply with its label.
b
(b: 0.02 µM, a: 0.0005 µM)

P. N#Cc1ccc2[nH]cc(CCCCN3CCN(c4ccc5occc5c4C(N)=O)CC3)c2c1
Q. O=C(O)c1ccc2[nH]cc(CCCCN3CCC(c4ccccc4)CC3)c2c1
Which entry shows the lesser value of IC50 here, P or Q ? To answer, give the label that identifies your chosen option.
P
(P: 0.0033 µM, Q: 0.1 µM)
